- Tested on: Aspergillus niger
- TEST DESCRIPTION: Mycelial growth inhibition, poisoned food method
- Type: cell-based
- STATED CONDITIONS: Aspergillus niger, 20 μg/μL in DMSO
MEASURED PARAMETER: Millimeters of Fungal Mycelial Growth Inhibition in DMSO (20 μg/μL)

API: value(readout= Millimeters of Fungal Mycelial Growth Inhibition in DMSO (20 μg/μL), system= Aspergillus niger, query= C[C@@H]1[C@H](O)[C@@H](C)/C=C/C=C/CC/C=C/C=C/C=C/C=C/C(O[C@H]2O[C@H](C)[C@@H](O)[C@H](N)[C@@H]2O)CC2O[C@](O)(CC(O)C(O)CCC(O)CC(O)CC(O)CC(=O)O[C@H]1C)CC(O)C2C(=O)O (stereo partly shown) [Nystatin, reference compound] )
59 ± 0.00 Millimeters

---

- Tested on: brine shrimp nauplii
- TEST DESCRIPTION: Brine shrimp lethality bioassay
- STATED CONDITIONS: 24 and 48 h
MEASURED PARAMETER: death (brine shrimp mortality) (%)
Return type: number; implicit unit %.

Fill in: death (brine shrimp mortality) of CCCCCCCCCCCCCCCC(=O)OC[C@H]1O[C@@H](n2ccc(=O)[nH]c2=O)[C@H](O)[C@@H]1O is ___
31.21

Fill in: death (brine shrimp mortality) of CCCCCCCCCCCCCCCC(=O)OCC1OC(n2ccc(=O)[nH]c2=O)C(OC(c2ccccc2)(c2ccccc2)c2ccccc2)C1OC(c1ccccc1)(c1ccccc1)c1ccccc1 (centres unmarked) is ___
34.25

Fill in: death (brine shrimp mortality) of CCCCCCCCCCCCCCCC(=O)OC[C@H]1O[C@@H](n2ccc(=O)[nH]c2=O)[C@H](OC(=O)c2ccc(C(C)(C)C)cc2)[C@@H]1OC(=O)c1ccc(C(C)(C)C)cc1 is ___
33.71

Just for reference, paper PMC10302127 is where these values come from.
